meta.source: ChEMBL document CHEMBL2218924

- TEST_TARGET: G protein-coupled receptor kinase 5 (Homo sapiens)
- CONDITION_INFO: at 1 µM
For each entry below, report its residual activity value.
Numbers only, in %.

Sample answers from the record:
{"columns": ["SAMPLE_SMILES", "VAL"],
 "data": [
  ["O=C1c2ccccc2-[n+]2ccc3c([nH]c4ccccc43)c21", 91],
  ["COc1cc2ncnc(Nc3ccc(Oc4ccccc4)cc3)c2cc1OC", 90],
  ["Nc1ccc2ncnc(NCCc3ccc(Oc4ccccc4)cc3)c2c1", 104]
]}

Give residual activity for all compounds that follow.
1. Nc1n[nH]c2nc3ccccc3nc12
2. CC(C)(C)c1cc(C=C(C#N)C#N)cc(Br)c1O
3. O=C(c1cc2cc(O)ccc2[nH]1)c1cc2cc(O)ccc2[nH]1
4. COc1cccc(-c2cc(=O)c3ccccc3o2)c1N
5. O=C1C(Cl)=C(N2C(=O)CCC2=O)C(=O)c2ccccc21

Output:
[98, 120, 79, 100, 98]

Field: residual activity. Fill in for each record below.
1. CCN(CC)CCCCN1c2ccccc2Oc2ccc(Cl)cc21
2. COc1cc2ncnc(Nc3ccc(O)c(Br)c3)c2cc1OC

Output:
107
89

For each of the compounds below, state residual activity.
1. O=C(CCCc1ccc(-c2ccccc2F)cc1)Nc1ccc(O)cc1
2. Cc1cncc2cccc(S(=O)(=O)N3CCCN(C(=O)CN)C[C@H]3C)c12

Output:
1. 101
2. 98

Can you give me residual activity for all of these, one by one?
1. Cc1cccc(-c2[nH]c(C(C)(C)C)nc2-c2ccc3c(c2)OCO3)n1
2. CO[C@H]1C[C@@H]2CC[C@@H](C)[C@@](O)(O2)C(=O)C(=O)N2CCCC[C@H]2C(=O)O[C@H]([C@H](C)C[C@@H]2CC[C@@H](O)[C@H](OC)C2)CC(=O)[C@H](C)/C=C(\C)[C@@H](O)[C@@H](OC)C(=O)[C@H](C)C[C@H](C)/C=C/C=C/C=C/1C
3. CC(C)n1cnc2c(NCc3ccccc3)nc(NCCCO)nc21
4. O=C(O)c1ccc2c3c1cccc3c(=O)n1c3ccccc3nc21
5. O=C1NC(=O)/C(=C\c2ccc3nccnc3c2)S1
6. COc1cc2ncnc(Nc3ccc(NC(=O)c4ccccc4)cc3)c2cc1OC

Output:
105
95
101
95
103
105

Batch request: residual activity for each of the following compounds.
1. COc1cc2nccc(Oc3ccc(NC(=S)NC(=O)c4ccccc4C)cc3)c2cc1OC
2. O=c1c(-c2ccc(F)cc2)c(-c2ccncc2)[nH]n1-c1ccc(Cl)cc1
3. Nc1cccc(-c2cc3c(Oc4cccc(O)c4)ncnc3[nH]2)c1
4. O=C(Nc1nc2ccccc2n1CCN1CCOCC1)c1cccc([N+](=O)[O-])c1

Output:
[98, 101, 92, 107]

Quick request: residual activity for each listed item, please.
1. Oc1ccc(-c2nc(-c3ccc(F)cc3)c(-c3ccncc3)[nH]2)cc1
2. Nc1nc(Nc2ccc(S(N)(=O)=O)cc2)nn1C(=O)c1c(F)cccc1F
3. Nc1ncnc2c1c(-c1ccc(Oc3ccccc3)cc1)cn2C1CCCC1
4. NC(=O)Nc1sc(-c2ccc(F)cc2)cc1C(N)=O
5. COc1cc2nccc(Oc3ccc(NC(=O)Nc4cc(C)on4)c(Cl)c3)c2cc1OC
6. NCCNc1ncc(C(N)=O)c(Nc2cccc(C(F)(F)F)c2)n1
7. CNc1cc2c(Nc3cccc(Br)c3)ncnc2cn1

Output:
1: 109; 2: 78; 3: 103; 4: 93; 5: 105; 6: 105; 7: 109

Parameter requested: residual activity. Apply to each item below.
1. O=Nc1c(-c2c(O)[nH]c3ccccc23)[nH]c2ccccc12
2. Cc1ccc(S(=O)(=O)/C=C/C#N)cc1
3. O=C1c2ccccc2-c2nc3nnnn3nc21

Output:
92
96
107

Batch lookup, residual activity per entry.
1. COc1ccc(C(=O)Nc2sc3c(c2C(N)=O)CCCC3)cc1OC
2. Nc1ncnc2[nH]nc(Nc3ccc(F)cc3)c12
3. O=C1Cc2c([nH]c3ccc(Br)cc23)-c2ccccc2N1

Output:
1. 91
2. 103
3. 95
